# targetOfAssay: SNX27, Q96L92
# experiment: holdup assay
# Design: key: below the threshold = too weak to quantify, mostly under pKd 3.1 to 4
# experimentalParameters: plain residues with an end cap or a label only (N-terminal biotin on a linker: ado-ado)
endpointName: pKd

>>> result("IDESKKEWLI [CNTNAP2, Q9UHC6]")
"below the threshold"
>>> result("RSSGGDDFWF [KCNV1, Q6PIU1]")
4.15
>>> result("SFISKKEWYV [NECTIN1, Q15223]")
"below the threshold"
>>> result("PPGKHLVTEV [KCNA7, Q96RP8]")
4.95
>>> result("LPAVCYDIDI [PTTG2, Q9NZH5]")
"below the threshold"

Give its pKd value. Item: EDPRVEVTQF [SLC22A9, Q8IVM8]
5.39

Now try GEDRSPPTAL [MKNK1, Q9BUB5] .
below the threshold

Now try PSHPRLQTHV [KIRREL2, Q6UWL6] .
below the threshold

Now try DPAESMESLV [PTPRG, P23470] .
5.42

Now try PTPDLPQTRV [KLHDC7A, Q5VTJ3] .
4.21

Now try NISYRRESAI [KCNJ4, P48050] .
below the threshold

Now try STKRKLASAV [NCF1, P14598] .
below the threshold

src = paper PMC9482650
